Protocol text: Cytotoxicity against mouse NIH/3T3 cells assessed as reduction in cell viability measured after 24 hrs by sulforhodamine B assay
Type: cell-based, NIH3T3

Compound: CNC(=O)c1cc2c(cc1OC)[C@@]1(C)Cc3cnc(C)nc3C(C)(C)C1CC2 (mixture of isomers)
CC50 at 24 h: > 200 µM

====

Tested on: TM3
Protocol text: Induction of testosterone production in mouse TM3 cells assessed as increase in testosterone level at 20 uM measured after 24 hrs by ELISA relative to control
Format: functional

Compound: COc1ccc2c(c1)[C@@]1(C)Cc3c([nH]c4ccccc34)C(C)(C)C1CC2 (some centres not stated)
Activity, %: 183.4
--
Compound: COc1ccc(-c2oc3c(CC=C(C)C)c(O[C@@H]4O[C@H](CO)[C@@H](O)[C@H](O)[C@H]4O)cc(O)c3c(=O)c2O[C@@H]2O[C@@H](C)[C@H](O)[C@@H](O)[C@H]2O)cc1
Activity, %: 139.6
--
Compound: COc1cc2c(cc1C(=O)N(C)C)CCC1C(C)(C)c3nc(C)ncc3C[C@]21C (mixture of isomers)
Activity, %: 133.1
--
Compound: COc1ccc2c(c1)[C@@]1(C)Cc3cnc(C)nc3C(C)(C)C1C/C2=N/O (mixture of isomers)
Activity, %: 128.5
--
Compound: Cc1ncc2c(n1)C(C)(C)C1CCc3ccc(OC(C)C)cc3[C@@]1(C)C2 (mixture of isomers)
Activity, %: 129.3
--
Compound: C=CCNC(=O)c1cc2c(cc1OC)[C@@]1(C)Cc3cnc(C)nc3C(C)(C)C1CC2 (mixture of isomers)
Activity, %: 142.9
--
Compound: COc1cc2c(cc1N)CCC1C(C)(C)c3nc(C)ncc3C[C@]21C.Cl (mixture of isomers)
Activity, %: 146.6

====

Protocol text: Cmax in Sprague-Dawley rat plasma at 50 mg/kg, po up to 12 hrs by LC/MS analysis
Format: ADME, organism-based
Design: dose 50 mg/kg, route oral

Molecule: CNC(=O)c1cc2c(cc1OC)[C@@]1(C)Cc3cnc(C)nc3C(C)(C)C1CC2 (mixture of isomers)
Cmax, ng/mL: 239

====

Protocol text: AUC (0 to infinity) in Sprague-Dawley rat plasma at 5 mg/kg, iv by LC/MS analysis
Format: ADME, organism-based
Set-up: dose 5 mg/kg, route intravenous, time infinity

Compound: CNC(=O)c1cc2c(cc1OC)[C@@]1(C)Cc3cnc(C)nc3C(C)(C)C1CC2 (mixture of isomers)
AUC(0-inf) (ng·h/mL): 551

====

Protocol text: Cytotoxicity against mouse TM3 cells assessed as reduction in cell viability measured after 24 hrs by sulforhodamine B assay
Format: cell-based
Each entry below carries its recorded CC50 at 24 h.
Measurement name: CC50 at 24 h

Molecule: COc1cc2c(cc1NC(C)=O)CCC1C(C)(C)c3nc(C)ncc3C[C@]21C (mixture of isomers)
Result: > 200 µM
//
Molecule: COc1ccc(-c2oc3c(CC=C(C)C)c(O[C@@H]4O[C@H](CO)[C@@H](O)[C@H](O)[C@H]4O)cc(O)c3c(=O)c2O[C@@H]2O[C@@H](C)[C@H](O)[C@@H](O)[C@H]2O)cc1
Result: > 200 µM
//
Molecule: COc1cc2c(cc1C(=O)NO)CCC1C(C)(C)c3nc(C)ncc3C[C@]21C (mixture of isomers)
Result: 82.2 µM
//
Molecule: CCOC(=O)c1[nH]nc2c1C[C@]1(C)c3cc(OC)ccc3CCC1C2(C)C (stereo not given in full)
Result: < 50 µM
//
Molecule: COc1cc2c(cc1C(=O)Nc1ncco1)CCC1C(C)(C)c3nc(C)ncc3C[C@]21C (mixture of isomers)
Result: < 50 µM
//
Molecule: CCCCCNC(=O)c1cc2c(cc1OC)[C@@]1(C)Cc3cnc(C)nc3C(C)(C)C1CC2 (mixture of isomers)
Result: < 50 µM
//
Molecule: COc1cc2c(cc1C(=O)Nc1ccccc1)CCC1C(C)(C)c3nc(C)ncc3C[C@]21C (mixture of isomers)
Result: < 50 µM
//
Molecule: COc1cc2c(cc1C(=O)Nc1ccc3[nH]ncc3c1)CCC1C(C)(C)c3nc(C)ncc3C[C@]21C (mixture of isomers)
Result: < 50 µM
//
Molecule: COc1ccc2c(c1)[C@@]1(C)Cc3sc(N)nc3C(C)(C)C1CC2 (stereo not given in full)
Result: < 50 µM
//
Molecule: CCCCNC(=O)c1cc2c(cc1OC)[C@@]1(C)Cc3cnc(C)nc3C(C)(C)C1CC2 (mixture of isomers)
Result: < 50 µM
//
Molecule: CCc1ccc(NC(=O)c2cc3c(cc2OC)[C@@]2(C)Cc4cnc(C)nc4C(C)(C)C2CC3)cc1 (mixture of isomers)
Result: < 50 µM
//
Molecule: COc1cc2c(cc1C(=O)N(C)C)CCC1C(C)(C)c3nc(C)ncc3C[C@]21C (mixture of isomers)
Result: > 200 µM
//
Molecule: CNC(=O)c1cc2c(cc1OC)[C@@]1(C)Cc3cnc(C)nc3C(C)(C)C1CC2 (mixture of isomers)
Result: > 200 µM
//
Molecule: COc1ccc2c(c1)[C@@]1(C)Cc3cnc(C)nc3C(C)(C)C1CC2 (mixture of isomers)
Result: 151 µM
//
Molecule: COc1cc2c(cc1C(=O)NN)CCC1C(C)(C)c3nc(C)ncc3C[C@]21C (mixture of isomers)
Result: > 200 µM
